Listing of entries alongside the reported residual activity.
Molecular target: Tyrosine-protein kinase JAK3 (Homo sapiens)
Sequence (whole entry): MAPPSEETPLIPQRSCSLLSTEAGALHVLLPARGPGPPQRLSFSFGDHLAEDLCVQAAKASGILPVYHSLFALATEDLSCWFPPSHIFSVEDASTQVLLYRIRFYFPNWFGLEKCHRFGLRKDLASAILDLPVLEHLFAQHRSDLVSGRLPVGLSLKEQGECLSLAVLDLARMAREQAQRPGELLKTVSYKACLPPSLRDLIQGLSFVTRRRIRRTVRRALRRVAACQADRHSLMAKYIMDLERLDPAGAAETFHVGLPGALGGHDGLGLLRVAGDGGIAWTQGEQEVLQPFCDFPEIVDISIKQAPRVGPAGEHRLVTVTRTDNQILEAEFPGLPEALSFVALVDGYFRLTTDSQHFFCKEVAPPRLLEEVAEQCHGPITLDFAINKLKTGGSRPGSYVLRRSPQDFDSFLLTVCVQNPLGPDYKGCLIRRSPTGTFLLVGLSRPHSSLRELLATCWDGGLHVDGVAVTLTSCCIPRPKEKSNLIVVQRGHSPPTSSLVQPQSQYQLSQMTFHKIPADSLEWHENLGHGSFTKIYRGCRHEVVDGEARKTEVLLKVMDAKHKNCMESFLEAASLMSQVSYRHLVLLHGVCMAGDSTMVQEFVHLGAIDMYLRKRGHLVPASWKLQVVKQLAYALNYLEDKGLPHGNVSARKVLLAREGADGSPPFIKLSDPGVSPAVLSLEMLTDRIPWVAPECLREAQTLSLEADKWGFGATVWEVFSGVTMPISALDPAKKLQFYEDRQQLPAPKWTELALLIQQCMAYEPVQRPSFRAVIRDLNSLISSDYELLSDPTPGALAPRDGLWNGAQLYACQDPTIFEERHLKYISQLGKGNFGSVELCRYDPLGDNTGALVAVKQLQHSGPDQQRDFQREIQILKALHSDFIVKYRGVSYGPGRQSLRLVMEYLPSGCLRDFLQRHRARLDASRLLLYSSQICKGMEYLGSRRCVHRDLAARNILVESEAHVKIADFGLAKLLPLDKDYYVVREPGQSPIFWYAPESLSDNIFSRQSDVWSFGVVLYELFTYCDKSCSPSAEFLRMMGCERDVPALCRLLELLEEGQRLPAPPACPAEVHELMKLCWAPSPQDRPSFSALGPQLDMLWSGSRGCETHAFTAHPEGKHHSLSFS
Details: at 1 µM
All answers are understood in %, so give the number only.

- SMILES_RECORD: "CN(C)c1ccc(/C=C2\\C(=O)Nc3ccccc32)cc1"
  SYSTEM: "Tyrosine-protein kinase JAK3 (Homo sapiens)"
  VALUE_KIND: "residual activity"
  RECORDED_NUMBER: 86

Enquiry: residual activity of `CC#CC(=O)Nc1cc2c(Nc3ccc(F)c(Cl)c3)ncnc2cn1` on Tyrosine-protein kinase JAK3 (Homo sapiens)?
Return: 51

Enquiry: residual activity of `Cn1cc(/C=C2\C(=O)Nc3ccc(S(N)(=O)=O)cc32)c2ccccc21` on Tyrosine-protein kinase JAK3 (Homo sapiens)?
Return: 45

Enquiry: residual activity of `Oc1c2ccccc2c2c3c(cccc13)N=N2` on Tyrosine-protein kinase JAK3 (Homo sapiens)?
Return: 57

Enquiry: residual activity of `NC(=O)c1ccc2[nH]c(-c3ccc(Oc4ccc(Cl)cc4)cc3)nc2c1` on Tyrosine-protein kinase JAK3 (Homo sapiens)?
Return: 105

Enquiry: residual activity of `COc1cc2ncc(-c3ccccc3)nc2cc1OC` on Tyrosine-protein kinase JAK3 (Homo sapiens)?
Return: 92
